Tested on: Pseudomonas aeruginosa ATCC 27853
PROTOCOL_SUMMARY: MIC, broth macrodilution (CLSI), P. aeruginosa ATCC 27853
Type: cell-based
VALUE_TYPE: Minimal Inhibitory Concentration (MIC)

Answered cases to consult:
[
  {
    "COMPOUND": "CCCCCCNC(=O)OCC1OC(OC2C(OC(=O)NCCCCCC)C(N)CC(N)C2OC2OC(CN)C(OC(=O)NCCCCCC)C(OC(=O)NCCCCCC)C2N)C(OC(=O)NCCCCCC)C1OC1OC(CN)C(OC(=O)NCCCCCC)C(OC(=O)NCCCCCC)C1N.O=C(O)C(F)(F)F.O=C(O)C(F)(F)F.O=C(O)C(F)(F)F.O=C(O)C(F)(F)F.O=C(O)C(F)(F)F.O=C(O)C(F)(F)F (stereo not drawn) [Compound 3]",
    "Minimal Inhibitory Concentration (MIC)": ">256 µg/mL"
  },
  {
    "COMPOUND": "NCC1OC(OC2C(N)CC(N)C(OC3OC(COCc4ccccc4)C(OCc4ccccc4)C(N)C3OCc3ccccc3)C2OCc2ccccc2)C(OCc2ccccc2)C(OCc2ccccc2)C1OCc1ccccc1.O=C(O)C(F)(F)F.O=C(O)C(F)(F)F.O=C(O)C(F)(F)F.O=C(O)C(F)(F)F (stereo not drawn) [Compound 15]",
    "Minimal Inhibitory Concentration (MIC)": ">64 µg/mL"
  },
  {
    "COMPOUND": "NCC1OC(OC2C(N)CC(N)C(OC(=O)Nc3ccccc3)C2OC2OC(COC(=O)Nc3ccccc3)C(OC3OC(CN)C(OC(=O)Nc4ccccc4)C(OC(=O)Nc4ccccc4)C3N)C2OC(=O)Nc2ccccc2)C(N)C(OC(=O)Nc2ccccc2)C1OC(=O)Nc1ccccc1.O=C(O)C(F)(F)F.O=C(O)C(F)(F)F.O=C(O)C(F)(F)F.O=C(O)C(F)(F)F.O=C(O)C(F)(F)F.O=C(O)C(F)(F)F (stereo not drawn) [Compound 1]",
    "Minimal Inhibitory Concentration (MIC)": "256 µg/mL"
  },
  {
    "COMPOUND": "NCC1OC(OC2C(N)CC(N)C(OC(=O)Nc3ccc(Cl)cc3)C2OC2OC(COC(=O)Nc3ccc(Cl)cc3)C(OC3OC(CN)C(OC(=O)Nc4ccc(Cl)cc4)C(OC(=O)Nc4ccc(Cl)cc4)C3N)C2OC(=O)Nc2ccc(Cl)cc2)C(N)C(OC(=O)Nc2ccc(Cl)cc2)C1OC(=O)Nc1ccc(Cl)cc1.O=C(O)C(F)(F)F.O=C(O)C(F)(F)F.O=C(O)C(F)(F)F.O=C(O)C(F)(F)F.O=C(O)C(F)(F)F.O=C(O)C(F)(F)F (stereo not drawn) [Compound 2]",
    "Minimal Inhibitory Concentration (MIC)": ">256 µg/mL"
  },
  {
    "COMPOUND": "NCC1OC(OC2C(N)CC(N)C(OC3OC(COCc4ccc(Cl)cc4)C(OCc4ccc(Cl)cc4)C(N)C3OCc3ccc(Cl)cc3)C2OCc2ccc(Cl)cc2)C(OCc2ccc(Cl)cc2)C(OCc2ccc(Cl)cc2)C1OCc1ccc(Cl)cc1.O=C(O)C(F)(F)F.O=C(O)C(F)(F)F.O=C(O)C(F)(F)F.O=C(O)C(F)(F)F (stereo not drawn) [Compound 16]",
    "Minimal Inhibitory Concentration (MIC)": ">128 µg/mL"
  }
]

Let us move to another entry and its Minimal Inhibitory Concentration (MIC).
INPUT: Requested field: Minimal Inhibitory Concentration (MIC). Item: COCC1OC(OC2C(NC(=O)C(CCN)OC)CC(N)C(OC3OC(CN)C(OC)C(OC)C3OC)C2OC)C(OC)C(N)C1OC.O=C(O)C(F)(F)F.O=C(O)C(F)(F)F.O=C(O)C(F)(F)F.O=C(O)C(F)(F)F (stereo not drawn) [Compound 20]
OUTPUT: >256 µg/mL

* * *

Test system: E. coli ATCC 25922
PROTOCOL_SUMMARY: MIC, broth macrodilution (CLSI), E. coli ATCC 25922
Assay type: cell-based
VALUE_TYPE: Minimal Inhibitory Concentration (MIC) (µg/mL)
Kindly answer with a numeric value in µg/mL, unit omitted.

[
  {
    "COMPOUND": "NCC1OC(OC2C(N)CC(N)C(OC3OC(COCc4ccc(Cl)cc4)C(OCc4ccc(Cl)cc4)C(N)C3OCc3ccc(Cl)cc3)C2OCc2ccc(Cl)cc2)C(OCc2ccc(Cl)cc2)C(OCc2ccc(Cl)cc2)C1OCc1ccc(Cl)cc1.O=C(O)C(F)(F)F.O=C(O)C(F)(F)F.O=C(O)C(F)(F)F.O=C(O)C(F)(F)F (centres unmarked) [Compound 16]",
    "Minimal Inhibitory Concentration (MIC) / µg/mL": 128
  },
  {
    "COMPOUND": "CN(C)c1ccc(NC(=O)OCC2OC(OC3C(N)CC(N)C(OC4OC(CN)C(OC(=O)Nc5ccc(N(C)C)cc5)C(OC(=O)Nc5ccc(N(C)C)cc5)C4OC(=O)Nc4ccc(N(C)C)cc4)C3OC(=O)Nc3ccc(N(C)C)cc3)C(OC(=O)Nc3ccc(N(C)C)cc3)C(N)C2OC(=O)Nc2ccc(N(C)C)cc2)cc1.O=C(O)C(F)(F)F.O=C(O)C(F)(F)F.O=C(O)C(F)(F)F.O=C(O)C(F)(F)F.O=C(O)C(F)(F)F.O=C(O)C(F)(F)F.O=C(O)C(F)(F)F.O=C(O)C(F)(F)F.O=C(O)C(F)(F)F.O=C(O)C(F)(F)F.O=C(O)C(F)(F)F (centres unmarked) [Compound 7]",
    "Minimal Inhibitory Concentration (MIC) / µg/mL": 256
  },
  {
    "COMPOUND": "NCC1OC(OC2C(N)CC(N)C(OC(=O)Nc3ccccc3)C2OC2OC(COC(=O)Nc3ccccc3)C(OC3OC(CN)C(OC(=O)Nc4ccccc4)C(OC(=O)Nc4ccccc4)C3N)C2OC(=O)Nc2ccccc2)C(N)C(OC(=O)Nc2ccccc2)C1OC(=O)Nc1ccccc1.O=C(O)C(F)(F)F.O=C(O)C(F)(F)F.O=C(O)C(F)(F)F.O=C(O)C(F)(F)F.O=C(O)C(F)(F)F.O=C(O)C(F)(F)F (centres unmarked) [Compound 1]",
    "Minimal Inhibitory Concentration (MIC) / µg/mL": 32
  }
]

INPUT: Requested field: Minimal Inhibitory Concentration (MIC). Item: NC[C@H]1O[C@H](O[C@H]2[C@H](O)[C@@H](O[C@H]3O[C@H](CO)[C@@H](O)[C@H](N)[C@H]3O)[C@H](N)C[C@@H]2N)[C@H](O)[C@@H](O)[C@@H]1O [Kanamycin A, reference compound]
OUTPUT: 8

* * *

Tested on: E. coli ATCC 25922
PROTOCOL_SUMMARY: MIC, broth macrodilution (CLSI), E. coli ATCC 25922
Assay type: cell-based
VALUE_TYPE: Minimal Inhibitory Concentration (MIC) (µg/mL)
Kindly answer with a numeric value in µg/mL, unit omitted.

[
  {
    "MOLECULE": "NCC1OC(OC2C(N)CC(N)C(OC3OC(COCc4ccccc4)C(OCc4ccccc4)C(N)C3OCc3ccccc3)C2OCc2ccccc2)C(OCc2ccccc2)C(OCc2ccccc2)C1OCc1ccccc1.O=C(O)C(F)(F)F.O=C(O)C(F)(F)F.O=C(O)C(F)(F)F.O=C(O)C(F)(F)F (stereo not shown)",
    "ENDPOINT_UNIT": "µg/mL",
    "Minimal Inhibitory Concentration (MIC)": 32
  },
  {
    "MOLECULE": "NCC1OC(OC2C(N)CC(N)C(OC(=O)Nc3ccccc3)C2OC(=O)Nc2ccccc2)C(N)C(OC(=O)Nc2ccccc2)C1OC(=O)Nc1ccccc1.O=C(O)C(F)(F)F.O=C(O)C(F)(F)F.O=C(O)C(F)(F)F.O=C(O)C(F)(F)F (stereo not shown)",
    "ENDPOINT_UNIT": "µg/mL",
    "Minimal Inhibitory Concentration (MIC)": 32
  },
  {
    "MOLECULE": "NCC1OC(OC2C(N)CC(N)C(OCc3ccccc3)C2OC2OC(COCc3ccccc3)C(OC3OC(CN)C(OCc4ccccc4)C(OCc4ccccc4)C3N)C2OCc2ccccc2)C(N)C(OCc2ccccc2)C1OCc1ccccc1.O=C(O)C(F)(F)F.O=C(O)C(F)(F)F.O=C(O)C(F)(F)F.O=C(O)C(F)(F)F.O=C(O)C(F)(F)F.O=C(O)C(F)(F)F (stereo not shown)",
    "ENDPOINT_UNIT": "µg/mL",
    "Minimal Inhibitory Concentration (MIC)": 8
  },
  {
    "MOLECULE": "NC[C@@H]1O[C@H](O[C@H]2[C@@H](O)[C@H](O[C@@H]3[C@@H](O)[C@H](N)C[C@H](N)[C@H]3O[C@H]3O[C@H](CN)[C@@H](O)[C@H](O)[C@H]3N)O[C@@H]2CO)[C@H](N)[C@@H](O)[C@@H]1O [Neomycin B, reference compound]",
    "ENDPOINT_UNIT": "µg/mL",
    "Minimal Inhibitory Concentration (MIC)": 4
  }
]

Let us move to another entry and its Minimal Inhibitory Concentration (MIC).
INPUT: Requested field: Minimal Inhibitory Concentration (MIC). Item: NCCC(OC(=O)Nc1ccccc1)C(=O)NC1CC(N)C(OC2OC(CN)C(OC(=O)Nc3ccccc3)C(OC(=O)Nc3ccccc3)C2OC(=O)Nc2ccccc2)C(OC(=O)Nc2ccccc2)C1OC1OC(COC(=O)Nc2ccccc2)C(OC(=O)Nc2ccccc2)C(N)C1OC(=O)Nc1ccccc1.O=C(O)C(F)(F)F.O=C(O)C(F)(F)F.O=C(O)C(F)(F)F.O=C(O)C(F)(F)F (stereo not shown)
OUTPUT: 256
